# System: Sheep red blood cells
# Format: cell-based
# STATED_CONDITIONS: red cells of sheep, 1 h, 64 μg mL^−1
Bridge positions count the residues as written; N and C are the ends. Square brackets hold non-standard residues; d marks the D form. Peptide text beside a SMILES is read from it. * marks the point of attachment. Octanoyl(7-Me) = CC(C)CCCCCC(=O)*; Palmitoyl = CCCCCCCCCCCCCCCC(=O)*; Lauroyl = CCCCCCCCCCCC(=O)*; dOrn = NCCC[C@@H](N)C(=O)O; Orn = NCCC[C@H](N)C(=O)O; Hexanoyl = CCCCCC(=O)*; Butyryl = CCCC(=O)*
The entries below are paired with their reported % Hemolytic activity, sheep red blood cells.
Field: numeric (%). Do not append units.

{"COMPOUND": "CCCCCCCCCCCCCCCC(=O)N[C@H](CO)C(=O)N[C@H](Cc1ccc(O)cc1)C(=O)N[C@H](Cc1c[nH]c2ccccc12)C(=O)N[C@H](CCCN)C(=O)N[C@@H](CCCN)C(=O)NCC(=O)N[C@H](CCCN)C(=O)N[C@@H](Cc1c[nH]c2ccccc12)C(=O)N[C@@H]1C(=O)N[C@@H]([C@@H](C)CC)C(=O)N[C@@H](CC(N)=O)C(=O)NCC(=O)NCC(=O)O[C@@H]1C [Compound 26] (Palmitoyl-[dS][dY][dW][dOrn][Orn]G[dOrn]WTINGG; ester 9-C)", "MEASURED_RESULT": 46.1}
{"COMPOUND": "CC[C@H](C)[C@@H]1NC(=O)[C@@H](NC(=O)[C@H](Cc2c[nH]c3ccccc23)NC(=O)[C@@H](CCCN)NC(=O)CNC(=O)[C@H](CCCN)NC(=O)[C@@H](CCCN)NC(=O)[C@@H](Cc2c[nH]c3ccccc23)NC(=O)[C@@H](Cc2ccc(O)cc2)NC(=O)[C@@H](CO)NC(=O)CCCCCC(C)C)[C@@H](C)OC(=O)CNC(=O)CNC(=O)[C@H](CC(N)=O)NC1=O [Compound 2, laterocidine] ({Octanoyl(7-Me)}-[dS][dY][dW][dOrn][Orn]G[dOrn]WTINGG; ester 9-C; N-terminus assumed)", "MEASURED_RESULT": 0.4}
{"COMPOUND": "CCCC(=O)N[C@H](CC(N)=O)C(=O)N[C@H](Cc1ccc(O)cc1)C(=O)N[C@H](Cc1c[nH]c2ccccc12)C(=O)N[C@H](CCCN)C(=O)N[C@@H](CCCN)C(=O)NCC(=O)N[C@H](CCCN)C(=O)N[C@@H](Cc1c[nH]c2ccccc12)C(=O)N[C@@H]1C(=O)N[C@@H]([C@@H](C)CC)C(=O)NCC(=O)N[C@@H](CO)C(=O)O[C@@H]1C [Compound 11] (Butyryl-[dN][dY][dW][dOrn][Orn]G[dOrn]WTIGS; ester 9-C)", "MEASURED_RESULT": 0.1}

Would you mind telling me what % Hemolytic activity, sheep red blood cells value was observed for CCCCCCCCCCCC(=O)N[C@H](CO)C(=O)N[C@H](Cc1ccc(O)cc1)C(=O)N[C@H](Cc1c[nH]c2ccccc12)C(=O)N[C@H](CCCN)C(=O)N[C@@H](CCCN)C(=O)NCC(=O)N[C@H](CCCN)C(=O)N[C@@H](Cc1c[nH]c2ccccc12)C(=O)N[C@@H]1C(=O)N[C@@H]([C@@H](C)CC)C(=O)N[C@@H](CC(N)=O)C(=O)NCC(=O)NCC(=O)O[C@@H]1C [Compound 24] (Lauroyl-[dS][dY][dW][dOrn][Orn]G[dOrn]WTINGG; ester 9-C) ? 21.5

Would you mind telling me what % Hemolytic activity, sheep red blood cells value was observed for CCCCCC(=O)N[C@H](CC(N)=O)C(=O)N[C@H](Cc1ccc(O)cc1)C(=O)N[C@H](Cc1c[nH]c2ccccc12)C(=O)N[C@H](CCCN)C(=O)N[C@@H](CCCN)C(=O)NCC(=O)N[C@H](CCCN)C(=O)N[C@@H](Cc1c[nH]c2ccccc12)C(=O)N[C@@H]1C(=O)N[C@@H]([C@@H](C)CC)C(=O)NCC(=O)N[C@@H](CO)C(=O)O[C@@H]1C [Compound 12] (Hexanoyl-[dN][dY][dW][dOrn][Orn]G[dOrn]WTIGS; ester 9-C) ? 0.3

Would you mind telling me what % Hemolytic activity, sheep red blood cells value was observed for CCCC(=O)N[C@H](CO)C(=O)N[C@H](Cc1ccc(O)cc1)C(=O)N[C@H](Cc1c[nH]c2ccccc12)C(=O)N[C@H](CCCN)C(=O)N[C@@H](CCCN)C(=O)NCC(=O)N[C@H](CCCN)C(=O)N[C@@H](Cc1c[nH]c2ccccc12)C(=O)N[C@@H]1C(=O)N[C@@H]([C@@H](C)CC)C(=O)N[C@@H](CC(N)=O)C(=O)NCC(=O)NCC(=O)O[C@@H]1C [Compound 20] (Butyryl-[dS][dY][dW][dOrn][Orn]G[dOrn]WTINGG; ester 9-C) ? 0.3

// provenance: paper PMC9749936
